Measured molar heat capacity at constant pressure accompanies every entry in the list below.
test: molar heat capacity at constant pressure; details: 314.15 K; 101.33 kPa; Liquid; DSC
± gives the expanded uncertainty stated by the source.
metric.name: molar heat capacity at constant pressure

INSERT INTO measurements (smiles_text, metric_name, observed_result) VALUES
  ('CCCCn1cc[n+](C(CC)CC)c1.O=S(=O)([N-]S(=O)(=O)C(F)(F)F)C(F)(F)F', 'molar heat capacity at constant pressure', '708.69 ± 27 J/K/mol'),
  ('CCCCn1cc[n+](CCC(C)C)c1.O=S(=O)([N-]S(=O)(=O)C(F)(F)F)C(F)(F)F', 'molar heat capacity at constant pressure', '697.47 ± 27 J/K/mol'),
  ('CCCCC[n+]1ccn(CCCC)c1.O=S(=O)([N-]S(=O)(=O)C(F)(F)F)C(F)(F)F', 'molar heat capacity at constant pressure', '698.7 ± 27 J/K/mol'),
  ('CCCC[n+]1ccn(C2CCCC2)c1.O=S(=O)([N-]S(=O)(=O)C(F)(F)F)C(F)(F)F', 'molar heat capacity at constant pressure', '663.88 ± 26 J/K/mol');

* * *

assay: molar heat capacity at constant pressure; conditions: 339.15 K; 101.33 kPa; Liquid; DSC
metric.name: molar heat capacity at constant pressure (J/K/mol)

INSERT INTO results (smiles_text, metric_name, observed_result) VALUES
  ('CCCC[n+]1ccn(C2CCCC2)c1.O=S(=O)([N-]S(=O)(=O)C(F)(F)F)C(F)(F)F', 'molar heat capacity at constant pressure', 683.01),
  ('CCCCn1cc[n+](CCC(C)C)c1.O=S(=O)([N-]S(=O)(=O)C(F)(F)F)C(F)(F)F', 'molar heat capacity at constant pressure', 717.34),
  ('CCCCC[n+]1ccn(CCCC)c1.O=S(=O)([N-]S(=O)(=O)C(F)(F)F)C(F)(F)F', 'molar heat capacity at constant pressure', 718.01),
  ('CCCCn1cc[n+](C(CC)CC)c1.O=S(=O)([N-]S(=O)(=O)C(F)(F)F)C(F)(F)F', 'molar heat capacity at constant pressure', 728.09);

* * *

conditions: 309.15 K; 101.33 kPa; Liquid; Sing-around technique in a fixed-path interferometer
metric.name: speed of sound (m/s)

INSERT INTO measurements (smiles_text, metric_name, observed_result) VALUES
  ('CCCCn1cc[n+](CCC(C)C)c1.O=S(=O)([N-]S(=O)(=O)C(F)(F)F)C(F)(F)F', 'speed of sound', 1192),
  ('CCCCn1cc[n+](C(CC)CC)c1.O=S(=O)([N-]S(=O)(=O)C(F)(F)F)C(F)(F)F', 'speed of sound', 1186.7),
  ('CCCC[n+]1ccn(C2CCCC2)c1.O=S(=O)([N-]S(=O)(=O)C(F)(F)F)C(F)(F)F', 'speed of sound', 1244.7),
  ('CCCCC[n+]1ccn(CCCC)c1.O=S(=O)([N-]S(=O)(=O)C(F)(F)F)C(F)(F)F', 'speed of sound', 1188.5);

* * *

assay: molar heat capacity at constant pressure; settings: 296.15 K; 101.33 kPa; Liquid; DSC
metric.name: molar heat capacity at constant pressure (J/K/mol)

INSERT INTO results (smiles_text, metric_name, observed_result) VALUES
  ('CCCC[n+]1ccn(C2CCCC2)c1.O=S(=O)([N-]S(=O)(=O)C(F)(F)F)C(F)(F)F', 'molar heat capacity at constant pressure', 650.62),
  ('CCCCC[n+]1ccn(CCCC)c1.O=S(=O)([N-]S(=O)(=O)C(F)(F)F)C(F)(F)F', 'molar heat capacity at constant pressure', 685.96),
  ('CCCCn1cc[n+](CCC(C)C)c1.O=S(=O)([N-]S(=O)(=O)C(F)(F)F)C(F)(F)F', 'molar heat capacity at constant pressure', 684.34),
  ('CCCCn1cc[n+](C(CC)CC)c1.O=S(=O)([N-]S(=O)(=O)C(F)(F)F)C(F)(F)F', 'molar heat capacity at constant pressure', 695.14);

* * *

assay: molar heat capacity at constant pressure; conditions: 301.15 K; 101.33 kPa; Liquid; DSC
± gives the expanded uncertainty stated by the source.
metric.name: molar heat capacity at constant pressure

INSERT INTO assay_data (smiles_text, observed_result) VALUES
  ('CCCCC[n+]1ccn(CCCC)c1.O=S(=O)([N-]S(=O)(=O)C(F)(F)F)C(F)(F)F', '689.29 ± 27 J/K/mol'),
  ('CCCCn1cc[n+](CCC(C)C)c1.O=S(=O)([N-]S(=O)(=O)C(F)(F)F)C(F)(F)F', '687.82 ± 27 J/K/mol'),
  ('CCCCn1cc[n+](C(CC)CC)c1.O=S(=O)([N-]S(=O)(=O)C(F)(F)F)C(F)(F)F', '698.85 ± 27 J/K/mol'),
  ('CCCC[n+]1ccn(C2CCCC2)c1.O=S(=O)([N-]S(=O)(=O)C(F)(F)F)C(F)(F)F', '654.08 ± 25 J/K/mol');

* * *

conditions: 291.15 K; 101.33 kPa; Liquid; Vibrating tube method
metric.name: mass density (kg/m3)

INSERT INTO results (smiles_text, metric_name, unit_info, observed_result) VALUES
  ('CCCCn1cc[n+](CCC(C)C)c1.O=S(=O)([N-]S(=O)(=O)C(F)(F)F)C(F)(F)F', 'mass density', 'kg/m3', 1324.4),
  ('CCCCn1cc[n+](C(CC)CC)c1.O=S(=O)([N-]S(=O)(=O)C(F)(F)F)C(F)(F)F', 'mass density', 'kg/m3', 1325.8),
  ('CCCC[n+]1ccn(C2CCCC2)c1.O=S(=O)([N-]S(=O)(=O)C(F)(F)F)C(F)(F)F', 'mass density', 'kg/m3', 1381.2),
  ('CCCCC[n+]1ccn(CCCC)c1.O=S(=O)([N-]S(=O)(=O)C(F)(F)F)C(F)(F)F', 'mass density', 'kg/m3', 1323.7);

* * *

experiment: molar heat capacity at constant pressure; details: 311.15 K; 101.33 kPa; Liquid; DSC
metric.name: molar heat capacity at constant pressure (J/K/mol)

INSERT INTO assay_data (smiles_text, observed_result) VALUES
  ('CCCCn1cc[n+](CCC(C)C)c1.O=S(=O)([N-]S(=O)(=O)C(F)(F)F)C(F)(F)F', 695.14),
  ('CCCCC[n+]1ccn(CCCC)c1.O=S(=O)([N-]S(=O)(=O)C(F)(F)F)C(F)(F)F', 696.23),
  ('CCCC[n+]1ccn(C2CCCC2)c1.O=S(=O)([N-]S(=O)(=O)C(F)(F)F)C(F)(F)F', 661.42),
  ('CCCCn1cc[n+](C(CC)CC)c1.O=S(=O)([N-]S(=O)(=O)C(F)(F)F)C(F)(F)F', 706.6);

* * *

assay: molar heat capacity at constant pressure; details: 295.15 K; 101.33 kPa; Liquid; DSC
metric.name: molar heat capacity at constant pressure (J/K/mol)

INSERT INTO results (smiles_text, observed_result) VALUES
  ('CCCC[n+]1ccn(C2CCCC2)c1.O=S(=O)([N-]S(=O)(=O)C(F)(F)F)C(F)(F)F', 650.01),
  ('CCCCn1cc[n+](CCC(C)C)c1.O=S(=O)([N-]S(=O)(=O)C(F)(F)F)C(F)(F)F', 683.63),
  ('CCCCC[n+]1ccn(CCCC)c1.O=S(=O)([N-]S(=O)(=O)C(F)(F)F)C(F)(F)F', 685.3),
  ('CCCCn1cc[n+](C(CC)CC)c1.O=S(=O)([N-]S(=O)(=O)C(F)(F)F)C(F)(F)F', 694.28);

* * *

Quick reference: molar heat capacity at constant pressure of the listed items.
assay: molar heat capacity at constant pressure; conditions: 328.15 K; 101.33 kPa; Liquid; DSC
± gives the expanded uncertainty stated by the source.
metric.name: molar heat capacity at constant pressure

INSERT INTO assay_data (smiles_text, metric_name, observed_result) VALUES
  ('CCCCn1cc[n+](CCC(C)C)c1.O=S(=O)([N-]S(=O)(=O)C(F)(F)F)C(F)(F)F', 'molar heat capacity at constant pressure', '708.78 ± 27 J/K/mol'),
  ('CCCC[n+]1ccn(C2CCCC2)c1.O=S(=O)([N-]S(=O)(=O)C(F)(F)F)C(F)(F)F', 'molar heat capacity at constant pressure', '674.44 ± 26 J/K/mol'),
  ('CCCCC[n+]1ccn(CCCC)c1.O=S(=O)([N-]S(=O)(=O)C(F)(F)F)C(F)(F)F', 'molar heat capacity at constant pressure', '709.54 ± 27 J/K/mol'),
  ('CCCCn1cc[n+](C(CC)CC)c1.O=S(=O)([N-]S(=O)(=O)C(F)(F)F)C(F)(F)F', 'molar heat capacity at constant pressure', '720.2 ± 28 J/K/mol');
